Test: LD50 / acute toxicity, intraperitoneal route
Format: in vivo
Conditions: i.p.; Gleason class in words, classes not defined
measured-property: Toxicity (Gleason)

>>> result("CC[C@]12CCCN3CCc4c(n(c5ccccc45)[C@@](O)(C(=O)OC)C1)[C@@H]32 [Example 2.a, Vincamine 2,4-dihydroxy-benzoate]")
"modest"
>>> result("CC[C@@]12C=C(C(=O)OC)n3c4c(c5ccccc53)CCN(CCC1)[C@H]42 [Example 8.b, Apovincamine p-toluensulfonate]")
"modest"
>>> result("CC[C@]12CCCN3CCc4c(n(c5ccccc45)[C@@](O)(C(=O)OC)C1)[C@@H]32 [Example 11.a, Vincamine 4-acetamidobutyrate]")
"modest"
>>> result("CC[C@]12CCCN3CCc4c(n(c5ccccc45)[C@@](O)(C(=O)OC)C1)[C@@H]32 [Example 3.a, Vincamine glucose-1-phosphate]")
"light"
>>> result("CC[C@@]12C=C(C(=O)OC)n3c4c(c5ccccc53)CCN(CCC1)[C@H]42 [Example 16.b, Apovincamine acetylsalicylate]")
"modest"
>>> result("CC[C@]12CCCN3CCc4c(n(c5ccccc45)[C@@](O)(C(=O)OC)C1)[C@@H]32 [Example 28.a, Vincamine salicylate]")
"modest"
>>> result("CC[C@@]12C=C(C(=O)OC)n3c4c(c5ccccc53)CCN(CCC1)[C@H]42 [Example 29.b, Apovincamine dihydroxyphenylalanine]")
"light"
>>> result("CC[C@]12CCCN3CCc4c(n(c5ccccc45)[C@@](O)(C(=O)OC)C1)[C@@H]32 [Example 25.a, Vincamine (D,L)-mandelate]")
"modest"

Turning now to a further record.
Need Toxicity (Gleason), item CC[C@@]12C=C(C(=O)OC)n3c4c(c5ccccc53)CCN(CCC1)[C@H]42 [Example 18.b]
light
